- Tgt: hERG-encoded potassium channel (Homo sapiens)
- Sequence (Q12809 whole entry): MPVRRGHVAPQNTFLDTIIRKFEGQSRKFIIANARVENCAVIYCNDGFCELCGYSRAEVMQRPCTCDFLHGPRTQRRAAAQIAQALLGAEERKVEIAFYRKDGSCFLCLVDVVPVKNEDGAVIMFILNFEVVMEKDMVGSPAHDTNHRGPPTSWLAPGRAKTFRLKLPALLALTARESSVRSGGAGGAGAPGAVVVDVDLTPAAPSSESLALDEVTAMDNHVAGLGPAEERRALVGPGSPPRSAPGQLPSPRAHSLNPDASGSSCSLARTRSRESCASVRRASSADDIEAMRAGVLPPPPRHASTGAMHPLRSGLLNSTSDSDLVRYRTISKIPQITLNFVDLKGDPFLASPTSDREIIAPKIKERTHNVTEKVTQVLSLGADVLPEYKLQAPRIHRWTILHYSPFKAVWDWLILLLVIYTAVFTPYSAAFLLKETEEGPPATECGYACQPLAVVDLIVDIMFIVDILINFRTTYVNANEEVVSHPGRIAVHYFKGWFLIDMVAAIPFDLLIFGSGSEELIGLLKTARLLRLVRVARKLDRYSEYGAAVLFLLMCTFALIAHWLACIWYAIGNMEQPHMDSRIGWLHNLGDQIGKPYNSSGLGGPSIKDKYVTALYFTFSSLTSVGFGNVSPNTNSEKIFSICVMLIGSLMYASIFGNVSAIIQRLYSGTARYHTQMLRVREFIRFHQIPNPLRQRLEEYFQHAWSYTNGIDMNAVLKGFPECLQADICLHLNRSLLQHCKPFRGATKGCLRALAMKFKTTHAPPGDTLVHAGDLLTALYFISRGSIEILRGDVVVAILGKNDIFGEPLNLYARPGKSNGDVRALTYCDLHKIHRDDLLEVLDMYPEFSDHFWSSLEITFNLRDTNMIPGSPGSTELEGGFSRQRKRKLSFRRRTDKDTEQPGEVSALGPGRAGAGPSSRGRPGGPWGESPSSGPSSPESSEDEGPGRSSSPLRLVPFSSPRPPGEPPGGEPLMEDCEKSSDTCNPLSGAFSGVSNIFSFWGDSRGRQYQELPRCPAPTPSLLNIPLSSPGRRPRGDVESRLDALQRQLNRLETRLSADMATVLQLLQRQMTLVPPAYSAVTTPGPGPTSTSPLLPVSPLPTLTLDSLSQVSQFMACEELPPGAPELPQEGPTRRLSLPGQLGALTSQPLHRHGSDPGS
- Assay text: Activity against hERG (planar-array-based voltage clamp)
- Format: cell-based
Where a name gives a salt, the structure may show the parent alone.
Observed property: IC50 (µM)
Only the number, expressed in µM, is required.

Return reported IC50. Input compound: CN(C[C@@H](CCN1CC(N2[C@@H]3CC[C@H]2CC(O)C3)C1)c1ccc(F)cc1)C(=O)c1cc(Br)cc(C(F)(F)F)c1 (stereo partly shown) [Ex 1, dihydrochloride] 13

====

- Assay text: Metabolic stability in liver microsomes (intrinsic clearance)
- Format: in vitro ADME
- Reported conditions: human, pH 7.4, HLM
Where a name gives a salt, the structure may show the parent alone.
Observed property: microsomal CLint at 1 μM (µL/min/mg)
The figure you give is taken to be in µL/min/mg; do not add the unit.

Specify reported microsomal CLint at 1 μM for the compound shown: CN(C[C@@H](CCN1CC(N2[C@@H]3CC[C@H]2CC(O)C3)C1)c1ccc(F)cc1)C(=O)c1cc(Br)cc(C(F)(F)F)c1 (stereo partly shown) [Ex 1, dihydrochloride] 28
